- experimentDescription: chemical genetic growth profiling, strain panel (AID 1159580);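 note: tested at 20 µM; growth read once vehicle control cultures reached saturation at 30 °C; 1 = growth at the plate median or of vehicle wells; lower values mean less growth of the strain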
- conditionSummary: S. cerevisiae deletion strains, growth OD, locus YDL185W, strain tfp1, hits give low values
The whole screen tested about 5,500 compounds, of which about 2,000 (36%) were called active. Inconclusive results (about 18%) are left out. Some of the results follow.
parameter: normalized growth

Worked examples, 5 compounds total:
compound	parameter	reportedValue
CC(CCC(=O)O)[C@H]1CCC2C3CC[C@@H]4CC(=O)CC[C@]4(C)C3C=C[C@@]21C (stereo partly specified)	normalized growth	1.02 (inactive)
O=P1(N(CCCl)CCCl)NCCCO1 (stereo unspecified)	normalized growth	1.01 (inactive)
COc1c(C)c2c(c(C)c1Cl)Oc1c(Cl)c(OC)c(Cl)c(C)c1C(=O)O2	normalized growth	1.02 (inactive)
CC(C)CCCC(C)[C@H]1CCC2C3CC=C4C[C@@H](O)CC[C@]4(C)C3CC[C@@]21C (stereo partly specified)	normalized growth	0.994 (inactive)
CCCSc1ccc2nc(NC(=O)OC)[nH]c2c1	normalized growth	0.93 (inactive)

Exercise: Quick one: normalized growth for `CCCc1cc(=O)[nH]c(=S)[nH]1` ?
Solution: 1.02 (inactive)

Exercise: I would be grateful if you could share the reported normalized growth for `CCN(CC)CCOC(=O)C1(C2CCCCC2)CCCCC1` .
Solution: 1 (inactive)

Exercise: Reported normalized growth, compound CC(C)CCCC(C)[C@H]1CCC2C3CC[C@@H]4C[C@H](O)CC[C@]4(C)C3CC[C@@]21C (stereo partly specified) : ____
Solution: 1.02 (inactive)

Exercise: For the compound shown here, C=C(C)C1(O)OC(=O)C=C1OC (stereo unspecified) , give the reported normalized growth.
Solution: 0.968 (inactive)

Exercise: Data request, read-out normalized growth, for `CCCc1c(OCCCCc2nn[nH]n2)ccc(C(C)=O)c1O`
Solution: 0.968 (inactive)

Exercise: Please give the measured normalized growth for this compound: `COC(=O)c1c(OC)cc2c(c1C)Oc1c(Cl)c(OC(C)=O)c(Cl)c(C)c1C(=O)O2`
Solution: 1.01 (inactive)

* * *

- experimentDescription: chemical genetic growth profiling, strain panel (AID 1159580)
- conditionSummary: S. cerevisiae deletion strains, growth OD, strain TSCII, hits give low values
About 2,000 (36%) of roughly 5,500 compounds were called active. Roughly 18% stayed inconclusive and do not appear here. Some of the results follow.
Here, each record is paired with measured normalized growth data.
# respond with the number and nothing more

Observe how each entry below is paired with its result.
structureSmilesString	parameter	reportedValue
NC(=S)N/N=C1/CCCc2ccccc21	normalized growth	0.93
CSc1sc(C(=O)Sc2ccccc2)cc1S(=O)(=O)C(C)C	normalized growth	0.98
O=S(=O)(Oc1ccc(-c2csnn2)cc1)c1ccccc1Cl	normalized growth	0.995
Cc1onc(-c2c(F)cccc2Cl)c1/C(N)=N\OC(=O)c1ccc(C(C)(C)C)cc1	normalized growth	0.99
OC(COc1ccc(F)cc1)(c1ccc(Cl)cc1)c1ccc(Cl)cc1	normalized growth	0.991

Exercise: What value of normalized growth has been reported for the following compound? `COc1c(Br)csc1C(=O)O/N=C(/N)c1cc(C(F)(F)F)cc(C(F)(F)F)c1`
Solution: 0.993

Exercise: Quick one: normalized growth of `Cc1nn(-c2cccc(Cl)c2)c2oc(=O)cc(C(F)(F)F)c12` ?
Solution: 0.967

Exercise: Entry `CC(=O)c1ccc(Cl)c(N=Cc2cc(Br)cc(Br)c2O)c1` has what normalized growth?
Solution: 0.102

Exercise: normalized growth for `N/C(Cc1cccc2ccccc12)=N/OC(=O)c1ccc(Cl)cc1` ?
Solution: 0.926

Exercise: Name the reported normalized growth value associated with the compound `O=S(=O)(Nc1ccccc1Oc1ccccc1)c1ccc(-c2ccno2)s1`
Solution: 0.967

* * *

- experimentDescription: chemical genetic growth profiling, strain panel (AID 1159580)
- conditionSummary: S. cerevisiae deletion strains, growth OD, locus YBR231C, strain swc5
About 2,000 (36%) of roughly 5,500 compounds were called active. Another 18% or so got no clear call; they are omitted. Cut-off read from the data, not from the text of the source: active = normalized growth mostly below about 0.91 (no sharp cut-off); inconclusive = no clear call, values can overlap the other calls; inactive = mostly above about 0.92. The list shows a part of the results.
Give your call using only these classes: active, inactive

compound	classification
C/C1=C/CC(C)(C)/C=C/C/C(C)=C/CC1	inactive
CC(=O)OCC(=O)[C@@]1(O)[C@H](C)CC2C3CCC4=CC(=O)C=C[C@]4(C)[C@@]3(F)[C@@H](O)C[C@@]21C (stereo partly drawn)	inactive
NCC(N)C(=O)c1ccccc1 (stereo not drawn)	inactive
COc1ccc(C2Sc3ccccc3N(CCN(C)C)C(=O)C2OC(C)=O)cc1 (stereo not drawn)	inactive
CN(C)CCCN1c2ccccc2Sc2ccc(Cl)cc21	active

Exercise: What is the recorded call for this compound in the test? Cc1c(C)c2c(c(C)c1O)CCC(C)(CCCC(C)CCCC(C)CCCC(C)C)O2 (stereo not drawn)
Solution: inactive

Exercise: Please let me know the test result on file for CCN1CCN(C(=O)NC(C(=O)N[C@@H]2C(=O)N3[C@@H]2SC(C)(C)[C@@H]3C(=O)O)c2ccccc2)C(=O)C1=O (stereo partly drawn) .
Solution: inactive

* * *

- experimentDescription: chemical genetic growth profiling, strain panel (AID 1159580);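 note: tested at 20 µM; growth read once vehicle control cultures reached saturation at 30 °C; 1 = growth at the plate median or of vehicle wells; lower values mean less growth of the strain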
- conditionSummary: S. cerevisiae deletion strains, growth OD, locus YDL040C, strain nat1
Among all 5,500 compounds or so, about 2,000 (36%) were called active. About 18% were inconclusive and are not listed. No stated cut-off is given here; in the data, active means normalized growth mostly below about 0.91 (no sharp cut-off); inconclusive means no clear call, values can overlap the other calls; inactive means mostly above about 0.92. The list shows a part of the results.
Response enum: 1 (yes) = active, 0 (no) = inactive

Record excerpt, results attached:
compound	classification
CC(=O)Nc1ccc(S(=O)(=O)Nc2onc(C)c2C)cc1	0 (no)
CCCOc1ccc2nc(NC(=O)OC)[nH]c2c1	0 (no)
CC(=O)Oc1cccc(O)c1	0 (no)
C=C1c2cccc(O)c2C(O)=C2C(=O)[C@]3(O)C(O)=C(C(N)=O)C(=O)[C@@H](N(C)C)[C@@H]3[C@@H](O)[C@H]12	0 (no)
O=C(O)c1ccc(S(=O)(=O)N(Cl)Cl)cc1	0 (no)

Exercise: // return assay outcome for CCN1CCN(C(=O)NC(C(=O)N[C@@H]2C(=O)N3[C@@H]2SC(C)(C)[C@@H]3C(=O)O)c2ccccc2)C(=O)C1=O (stereo partly specified)
Solution: 0 (no)

Exercise: // return assay outcome for C/C=C\C1=C(C(=O)O)N2C(=O)C(NC(=O)C(N)c3ccc(O)cc3)C2SC1 (stereo unspecified)
Solution: 0 (no)

* * *

- experimentDescription: chemical genetic growth profiling, strain panel (AID 1159580);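 note: tested at 20 µM; growth read once vehicle control cultures reached saturation at 30 °C; 1 = growth at the plate median or of vehicle wells; lower values mean less growth of the strain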
- conditionSummary: S. cerevisiae deletion strains, growth OD, locus YDR001C, strain nth1, hits give low values
About 2,000 (36%) of roughly 5,500 compounds were called active. Not shown: some 18% with an inconclusive outcome. This is one part of the list.
Measured normalized growth accompanies every entry in the list below.
Give your answer as a number; write no unit.

Take a look at these entries with their results.
molecule	normalized growth
CC(C)NCC(O)COc1ccc(COCCOC(C)C)cc1 (stereo unspecified)	1.01
CN(C)CCCN1c2ccccc2Sc2ccc(C(F)(F)F)cc21	1.02
C=C1c2cccc(O)c2C(O)=C2C(=O)[C@]3(O)C(O)=C(C(N)=O)C(=O)[C@@H](N(C)C)[C@@H]3[C@@H](O)[C@H]12	1.01
N[C@@H](CCC(=O)N[C@@H](CS)C(=O)NCC(=O)O)C(=O)O	0.993
CC(=O)O[C@H]1CC[C@@]2(C)C(=CC(=O)C3C4CCC(C(C)CCCC(C)C)[C@@]4(C)CCC32)C1 (stereo partly specified)	0.99

Exercise: Data request, read-out normalized growth, for `CC(=O)N[C@@H](Cc1c[nH]c2ccccc12)C(N)=O`
Solution: 1.01

Exercise: Look up normalized growth for this molecule: `CNCCCC12CCC(c3ccccc31)c1ccccc12`
Solution: 0.975

* * *

- experimentDescription: chemical genetic growth profiling, strain panel (AID 1159580);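 note: tested at 20 µM; growth read once vehicle control cultures reached saturation at 30 °C; 1 = growth at the plate median or of vehicle wells; lower values mean less growth of the strain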
- conditionSummary: S. cerevisiae deletion strains, growth OD, locus YNL307C, strain MCK1, hits give low values
The whole screen tested about 5,500 compounds, of which about 2,000 (36%) were called active. Another 18% or so got no clear call; they are omitted. The list shows a part of the results.
parameter: normalized growth
Answer as a number with no unit attached.

Here's what some known entries look like.
compound	normalized growth
CC(=O)O[C@@H]1CC2C(C)(C)C(=O)C=C[C@]2(C)C2CC[C@]3(C)C(=CC(=O)O[C@H]3c3ccoc3)[C@@]21C (stereo partly specified)	0.991
CC(=O)O[C@H]1CC[C@@]2(C)C(C[C@@H](OC(C)=O)[C@@]3(C)C4=CC(=O)O[C@@H](c5ccoc5)[C@]4(C)CCC23)C1(C)C (stereo partly specified)	0.995
C[n+]1ccccc1/C=N/O	0.992
CC(=O)O[C@@H]1CC[C@@]2(C)C(C[C@@H](OC(C)=O)[C@@]3(C)C4=CC(=O)O[C@@H](c5ccoc5)[C@]4(C)CCC23)C1(C)C (stereo partly specified)	0.993
O=C(NCO)c1cccnc1	0.993

API: the following record is the query input.
Exercise: Looking for the measured normalized growth of CC(C)=CCCC(C)C1CC[C@@]2(C)C3=C(CC[C@]12C)C1(C)CC[C@H](O)C(C)(C)C1CC3 (stereo partly specified) , can you help?
Solution: 0.998
